assay: chemical genetic growth profiling, strain panel (AID 1159580);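 further: tested at 20 µM; growth read once vehicle control cultures reached saturation at 30 °C; 1 = growth at the plate median or of vehicle wells; lower values mean less growth of the strain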; conditions: S. cerevisiae deletion strains, growth OD, locus YNL183C, strain NPR1, hits give low values
Screen size: about 5,500 compounds; about 2,000 (36%) were called active. About 18% were inconclusive and are not listed. The list shows a part of the results.
Strictly below 0.9 in normalized growth: class 1. Otherwise: class 0.

Reference set (6 entries):
1. CS(=O)(=O)OCCCCOS(C)(=O)=O : class 0
2. CCOP(=S)(OCC)Oc1ccc2c(C)c(Cl)c(=O)oc2c1 : class 0
3. Nc1ccc(S(=O)(=O)O)cc1 : class 0
4. COc1cc(N=Cc2cc(Cl)cc(Cl)c2OC(=O)c2cc(OC)c(OC)c(OC)c2)c(OC)cc1Cl : class 1
5. CC1=CC(=O)CC(C)(C)C1(O)/C=C/C(C)=C\C(=O)O (stereo unspecified) : class 0
6. COc1ccc2c(c1O)-c1c(OC)c(OC)cc3c1[C@H](C2)N(C)CC3 : class 0

Prompt: Item C=C[C@@]1(C)CC(=O)[C@@]2(O)[C@](C)(O1)[C@@H](O)[C@@H](O)C1C(C)(C)CC[C@H](O)[C@@]12C (stereo partly specified) : normalized growth beneath 0.9, strictly?
Response: class 0

Prompt: Okay, and `COc1ccccc1NC(=O)Nc1nn(C)c2cccc(OC)c12` ?
Response: class 1

Prompt: Okay, and `NCCCCN=C(N)N` ?
Response: class 0

Prompt: Okay, and `O=C(O)c1cc(=O)c2c(OCC(O)COc3cccc4oc(C(=O)O)cc(=O)c34)cccc2o1` ?
Response: class 0

Prompt: Okay, and `O=C(O)CCCO` ?
Response: class 0

Prompt: Okay, and `CC1=C(/C=C/C(C)=C/C=C/C(C)=C\C(=O)O)C(C)(C)CCC1` ?
Response: class 0

Prompt: Okay, and `CC1=C(/C=C/C(C)=C/C=C/C(C)=C/CO)C(C)(C)CCC1` ?
Response: class 0

Prompt: Okay, and `Oc1ccc(/C=C/c2cc(O)cc(O)c2)cc1` ?
Response: class 0

Prompt: Okay, and OC1CCCCC1N1CCC(c2ccccc2)CC1 (stereo unspecified) ?
Response: class 0

Prompt: Okay, and `O=S(=O)(Nc1cc(C(F)(F)F)ccc1F)c1cc(C(F)(F)F)ccc1Cl` ?
Response: class 1

Prompt: Okay, and `CCc1cc2c(cc1-c1csc(C/C(N)=N\O)n1)C(C)(C)CCC2(C)C` ?
Response: class 1

Prompt: Okay, and `O=C(CCSc1cccs1)Nc1cccc(C(F)(F)F)c1` ?
Response: class 1

* * *

experiment: chemical genetic growth profiling, strain panel (AID 1159580); settings: S. cerevisiae deletion strains, growth OD, locus YOR061W, strain CKA2, hits give low values
The campaign covered roughly 5,500 compounds. About 2,000 (36%) were called active. Roughly 18% stayed inconclusive and do not appear here. The list shows a part of the results.
assay.metric: normalized growth
Respond using a number only.

Prompt: Which normalized growth is listed for `Oc1ccc(/C=C/c2cc(O)cc(O)c2)cc1` ?
Response: 0.995

Prompt: Okay, and `CCn1cc(C(=O)O)c(=O)c2ccc(C)nc21` ?
Response: 0.898

Prompt: Okay, and `CC[C@]12CCCN3CCc4c(n(c5ccccc45)[C@](O)(C(=O)OC)C1)[C@@H]32` ?
Response: 0.976

* * *

test: chemical genetic growth profiling, strain panel (AID 1159580); settings: S. cerevisiae deletion strains, growth OD, locus YFR028C, strain CDC14, hits give low values
The whole screen tested about 5,500 compounds, of which about 2,000 (36%) were called active. Another 18% or so got no clear call; they are omitted. The list shows a part of the results.
Entries and their normalized growth values follow.
Respond using a number only.

Recorded results for 3 compounds are shown here.
1) CC12CC[C@@H](O)CC1=CC[C@@H]1C2CCC2(C)C(=O)CC[C@@H]12 (stereo not given in full) : 1.01
2) Cc1cc(C(=O)O/N=C(/N)c2ccc([N+](=O)[O-])o2)no1 : 0.938
3) CCOC(=O)c1c(N=Cc2cc(Br)c(Br)cc2O)sc2c1CCCC2 : 0.982

Prompt: Which normalized growth is listed for `N=C(N)SCc1nc(-c2ccc(Cl)cc2)no1` ?
Response: 0.986

Prompt: Okay, and `Cc1onc(-c2ccccc2Cl)c1-c1nc2ccccc2c(=O)o1` ?
Response: 0.973

Prompt: Okay, and N#CC1=C(N)C(C#N)(C#N)C2(CCCCC2)C2CCCC=C12 (stereo not given) ?
Response: 0.985

Prompt: Okay, and `CC(C)(O)C#Cc1ccc(/C=N\Nc2c(Cl)cc(Cl)cc2Cl)cc1` ?
Response: 0.976

Prompt: Okay, and CCCCCCCC1CCC/C1=N/OC(=O)c1cccs1 (stereo not given) ?
Response: 0.98

Prompt: Okay, and `COc1cc(C(=O)Oc2c(Cl)cc(Cl)cc2C=Nc2cccc([N+](=O)[O-])c2)cc(OC)c1OC` ?
Response: 0.965

* * *

test: chemical genetic growth profiling, strain panel (AID 1159580);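 further: tested at 20 µM; growth read once vehicle control cultures reached saturation at 30 °C; 1 = growth at the plate median or of vehicle wells; lower values mean less growth of the strain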; conditions: S. cerevisiae deletion strains, growth OD, locus YHR087W, strain rtc3, hits give low values
Among all 5,500 compounds or so, about 2,000 (36%) were called active. Roughly 18% stayed inconclusive and do not appear here. This is one part of the list.
assay.metric: normalized growth
Respond using a number only.

1) C/C(=N/NC1=NCCN1)c1ccc(F)cc1 : 0.987
2) CN1c2ccccc2C(=O)NC1c1cc(Br)cs1 (stereo not drawn) : 1.01
3) COc1ccccc1NC(=O)N1CCCN(C(=O)c2cccs2)CC1 : 0.986
4) Fc1cccc(Cl)c1Cn1nnc(N2CCCCC2)n1 : 0.941
5) COC(=O)c1ccc(-c2ccccc2F)cc1 : 0.968
6) Cc1ccc(Cl)cc1NC(=S)NCCO : 1.01
7) O=C(O)c1cc(C(F)(F)F)ccc1F : 0.973

Now consider the entry below.
Prompt: Which normalized growth is listed for `CC1(C)CCC(C(C)(C)O)CC1` ?
Response: 1.02

* * *

Entries and their normalized growth values follow.
assay: chemical genetic growth profiling, strain panel (AID 1159580);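 further: tested at 20 µM; growth read once vehicle control cultures reached saturation at 30 °C; 1 = growth at the plate median or of vehicle wells; lower values mean less growth of the strain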; conditions: S. cerevisiae deletion strains, growth OD, locus YLR371W, strain rom2, hits give low values
About 2,000 (36%) of roughly 5,500 compounds were called active. About 18% were inconclusive and are not listed. Some of the results follow.

1. CO[C@@H]1C[C@@H](C[C@H]2CC[C@H](C)[C@H]([C@@H](C)C(=O)O)O2)O[C@]2(O[C@](C)([C@H]3CC[C@@](C)(C4O[C@@H](C5O[C@@](O)(CO)[C@H](C)C[C@@H]5C)C[C@@H]4C)O3)C[C@H]2C)[C@@H]1C (stereo partly drawn) : 0.999 (inactive)
2. COc1ccc(/C=C/C(=O)O)cc1OC : 1.02 (inactive)
3. C[C@@]12C(=O)OC(=O)[C@]1(C)C1CCC2O1 : 0.879 (active)
4. CC1=C(/C=C/C(C)=C/C=C/C(C)=C/CO)C(C)(C)CCC1 : 1.02 (inactive)
5. O=C(/C=C/c1ccc(O)c(O)c1)O[C@@H]1C[C@](O)(C(=O)O)C[C@@H](O)[C@H]1O : 1.01 (inactive)
6. C=CCN1CC[C@]23c4c5ccc(O)c4OC2C(=O)CC[C@@]3(O)[C@H]1C5 (stereo partly drawn) : 0.976 (inactive)
7. CC(=O)C1=C(O)C2C3c4c[nH]c5cccc(c45)CC3C(C)(C)N2C1=O (stereo not drawn) : 1.01 (inactive)
8. COc1cc(C(=O)O)c(O)c2c1OCO2 : 1.02 (inactive)
9. CN(C)CCCO[C@H]1[C@@H](C(O)CO)OC2OC(C)(C)O[C@@H]21 (stereo partly drawn) : 0.993 (inactive)
10. CS(=O)(=O)OCCCCOS(C)(=O)=O : 0.939 (inactive)

Prompt: Which normalized growth is listed for `COS(C)(=O)=O` ?
Response: 1.02 (inactive)

Prompt: Okay, and `CN=C1CN(O)C(c2ccccc2)=c2cc(Cl)ccc2=N1` ?
Response: 0.969 (inactive)

Prompt: Okay, and CC(Cc1ccc(O)c(O)c1)(NN)C(=O)O (stereo not drawn) ?
Response: 1.01 (inactive)

Prompt: Okay, and `CC(=O)OC/C=C(C)/C=C/C=C(C)/C=C/C1=C(C)CCCC1(C)C` ?
Response: 1 (inactive)

Prompt: Okay, and `C/C=C/c1ccc(OC)cc1` ?
Response: 1.02 (inactive)

Prompt: Okay, and `NC(=O)c1cnccn1` ?
Response: 1.01 (inactive)

* * *

Entries and their normalized growth values follow.
assay: chemical genetic growth profiling, strain panel (AID 1159580);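 further: tested at 20 µM; growth read once vehicle control cultures reached saturation at 30 °C; 1 = growth at the plate median or of vehicle wells; lower values mean less growth of the strain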; details: S. cerevisiae deletion strains, growth OD, locus YLR262C, strain YPT6, hits give low values
In all, about 5,500 compounds went through this assay and about 2,000 (36%) were called active. Roughly 18% stayed inconclusive and do not appear here. Some of the results follow.
Respond using a number only.

1) O=C(O)c1cc(O)c(O)c(O)c1 : 1.26
2) O=C(CCN1CCOCC1)c1ccc2c(c1)OCCO2 : 0.703
3) Cc1onc(-c2ccccc2Cl)c1C(=O)Nc1ccc(S(=O)(=O)Nc2nccs2)cc1 : 0.97
4) CCCCCCCC1CC/C(=C\c2ccc(/C=C3\CCC(CCCCCCC)C3=O)cc2)C1=O (configuration not stated) : 1.04
5) CC(COc1ccccc1)N(CCCl)Cc1ccccc1 (configuration not stated) : 0.977
6) CC1(C)CCC(C(C)(C)O)CC1 : 0.939
7) Oc1ccc(/C=C/c2cc(O)cc(O)c2)cc1 : 0.877
8) Cc1onc(-c2ccccc2Cl)c1C(=O)Nc1ccc2c(c1)OCO2 : 0.99
9) O=C(O)CCCCCCCCCCCCC1C=CCC1 (configuration not stated) : 0.476
10) Nc1ccc(S(=O)(=O)Nc2nccs2)cc1 : 1.05

Prompt: Which normalized growth is listed for O=C(Nc1cc(C(F)(F)F)cc(C(F)(F)F)c1)C(Sc1ccccn1)c1ccccc1 (configuration not stated) ?
Response: 0.962

Prompt: Okay, and `O=C(/C=C/c1ccc(O)c(O)c1)O[C@@H]1C[C@](O)(C(=O)O)C[C@@H](O)[C@H]1O` ?
Response: 1.11

Prompt: Okay, and `CCNS(=O)(=O)c1cc(Cl)sc1Cl` ?
Response: 0.985

Prompt: Okay, and `Nc1nccs1` ?
Response: 0.929

Prompt: Okay, and `COc1ccc(CN(Cc2ccc(OC)cc2)C(=O)c2cccs2)cc1` ?
Response: 0.925

Prompt: Okay, and CC(Cc1ccc(O)c(O)c1)(NN)C(=O)O (configuration not stated) ?
Response: 1.03

Prompt: Okay, and `CO[C@@H]1[C@@H](O[C@@H]2O[C@H](C)[C@@H](O[C@H]3C[C@@](C)(O)[C@H](O)[C@H](C)O3)[C@H](N(C)C)[C@H]2O)[C@@H](CC=O)C[C@@H](C)[C@@H](O[C@H]2CC[C@H](N(C)C)[C@@H](C)O2)/C=C/C=C/C[C@H](C)OC(=O)C[C@H]1O` ?
Response: 0.989

Prompt: Okay, and `CC12CCC(CC1)C(C)(C)O2` ?
Response: 1

Prompt: Okay, and C[C@@H]1CC2C3CCC4=CC(=O)C=C[C@]4(C)[C@@]3(F)[C@@H](O)C[C@]2(C)[C@@]1(O)C(=O)COP(=O)(O)O (some centres not stated) ?
Response: 1.01

Prompt: Okay, and `COc1ccc(OC)c(S(=O)(=O)NCc2c(F)cccc2Cl)c1` ?
Response: 0.893

Prompt: Okay, and `CCn1cc(C(=O)O)c(=O)c2cnc(N3CCCC3)nc21` ?
Response: 0.904

Prompt: Okay, and `CCn1cc(C(=O)O)c(=O)c2cnc(N3CCNCC3)nc21` ?
Response: 0.975
